- subject.of.test: P-gp (Homo sapiens, UniProt P08183)
- Construct: endogenous in cells; host or cells: Caco-2
- Sequence (P08183 whole entry): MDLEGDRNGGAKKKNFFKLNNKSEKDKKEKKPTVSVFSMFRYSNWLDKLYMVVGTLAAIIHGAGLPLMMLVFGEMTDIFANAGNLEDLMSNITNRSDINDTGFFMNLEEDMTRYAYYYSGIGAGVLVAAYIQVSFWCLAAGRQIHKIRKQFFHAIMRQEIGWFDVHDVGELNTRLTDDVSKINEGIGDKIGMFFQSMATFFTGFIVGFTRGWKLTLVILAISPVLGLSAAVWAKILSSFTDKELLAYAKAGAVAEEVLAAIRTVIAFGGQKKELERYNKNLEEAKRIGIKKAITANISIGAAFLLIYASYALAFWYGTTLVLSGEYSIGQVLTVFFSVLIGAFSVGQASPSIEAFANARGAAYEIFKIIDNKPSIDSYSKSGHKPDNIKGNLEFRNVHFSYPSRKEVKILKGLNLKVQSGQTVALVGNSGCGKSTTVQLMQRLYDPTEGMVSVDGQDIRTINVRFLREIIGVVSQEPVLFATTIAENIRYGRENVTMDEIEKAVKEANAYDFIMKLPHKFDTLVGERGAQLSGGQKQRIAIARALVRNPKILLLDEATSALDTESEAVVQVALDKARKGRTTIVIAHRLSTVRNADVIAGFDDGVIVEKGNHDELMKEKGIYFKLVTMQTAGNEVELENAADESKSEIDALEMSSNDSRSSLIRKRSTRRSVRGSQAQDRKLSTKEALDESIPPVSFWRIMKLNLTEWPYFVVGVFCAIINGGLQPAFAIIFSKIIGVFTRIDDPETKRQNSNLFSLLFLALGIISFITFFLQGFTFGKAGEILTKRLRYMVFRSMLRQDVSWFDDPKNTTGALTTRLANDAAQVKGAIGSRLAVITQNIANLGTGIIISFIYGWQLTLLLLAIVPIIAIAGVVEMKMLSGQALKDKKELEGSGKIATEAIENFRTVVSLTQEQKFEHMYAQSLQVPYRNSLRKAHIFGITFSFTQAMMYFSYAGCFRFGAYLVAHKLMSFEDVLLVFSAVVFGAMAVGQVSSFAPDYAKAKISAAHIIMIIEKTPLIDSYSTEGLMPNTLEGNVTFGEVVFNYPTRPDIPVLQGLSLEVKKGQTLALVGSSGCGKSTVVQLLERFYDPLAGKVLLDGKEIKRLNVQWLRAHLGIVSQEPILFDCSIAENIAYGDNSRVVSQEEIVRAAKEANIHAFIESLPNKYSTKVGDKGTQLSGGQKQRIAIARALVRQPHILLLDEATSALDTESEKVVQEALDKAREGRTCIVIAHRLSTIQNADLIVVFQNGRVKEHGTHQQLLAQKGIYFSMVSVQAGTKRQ
- assay.comment: ABC efflux transporter inhibitor test on Caco-2 cells (digoxin efflux)
- Format: in vitro ADME
- experimental.parameters: human, Caco-2 cells, probe digoxin (5 µM); read-out: Exhaust inhibition rate (%)
property.label: inhibition at 1 μM

Ask: Request: inhibition at 1 μM, test system P-gp (Homo sapiens, UniProt P08183), entry COc1cc(N2CCC3(CCN(C)CC3)CC2)ccc1Nc1ncc(Cl)c(Nc2ccccc2P(C)(C)=O)n1 [Iruplinalkib]
Reply: -13.2%

###

- subject.of.test: BSEP (Homo sapiens)
- Construct: host or cells: membrane vesicles ('Membrane capsule'), BSEP versus NC control, with ATP or AMP
- Sequence (O95342 whole entry): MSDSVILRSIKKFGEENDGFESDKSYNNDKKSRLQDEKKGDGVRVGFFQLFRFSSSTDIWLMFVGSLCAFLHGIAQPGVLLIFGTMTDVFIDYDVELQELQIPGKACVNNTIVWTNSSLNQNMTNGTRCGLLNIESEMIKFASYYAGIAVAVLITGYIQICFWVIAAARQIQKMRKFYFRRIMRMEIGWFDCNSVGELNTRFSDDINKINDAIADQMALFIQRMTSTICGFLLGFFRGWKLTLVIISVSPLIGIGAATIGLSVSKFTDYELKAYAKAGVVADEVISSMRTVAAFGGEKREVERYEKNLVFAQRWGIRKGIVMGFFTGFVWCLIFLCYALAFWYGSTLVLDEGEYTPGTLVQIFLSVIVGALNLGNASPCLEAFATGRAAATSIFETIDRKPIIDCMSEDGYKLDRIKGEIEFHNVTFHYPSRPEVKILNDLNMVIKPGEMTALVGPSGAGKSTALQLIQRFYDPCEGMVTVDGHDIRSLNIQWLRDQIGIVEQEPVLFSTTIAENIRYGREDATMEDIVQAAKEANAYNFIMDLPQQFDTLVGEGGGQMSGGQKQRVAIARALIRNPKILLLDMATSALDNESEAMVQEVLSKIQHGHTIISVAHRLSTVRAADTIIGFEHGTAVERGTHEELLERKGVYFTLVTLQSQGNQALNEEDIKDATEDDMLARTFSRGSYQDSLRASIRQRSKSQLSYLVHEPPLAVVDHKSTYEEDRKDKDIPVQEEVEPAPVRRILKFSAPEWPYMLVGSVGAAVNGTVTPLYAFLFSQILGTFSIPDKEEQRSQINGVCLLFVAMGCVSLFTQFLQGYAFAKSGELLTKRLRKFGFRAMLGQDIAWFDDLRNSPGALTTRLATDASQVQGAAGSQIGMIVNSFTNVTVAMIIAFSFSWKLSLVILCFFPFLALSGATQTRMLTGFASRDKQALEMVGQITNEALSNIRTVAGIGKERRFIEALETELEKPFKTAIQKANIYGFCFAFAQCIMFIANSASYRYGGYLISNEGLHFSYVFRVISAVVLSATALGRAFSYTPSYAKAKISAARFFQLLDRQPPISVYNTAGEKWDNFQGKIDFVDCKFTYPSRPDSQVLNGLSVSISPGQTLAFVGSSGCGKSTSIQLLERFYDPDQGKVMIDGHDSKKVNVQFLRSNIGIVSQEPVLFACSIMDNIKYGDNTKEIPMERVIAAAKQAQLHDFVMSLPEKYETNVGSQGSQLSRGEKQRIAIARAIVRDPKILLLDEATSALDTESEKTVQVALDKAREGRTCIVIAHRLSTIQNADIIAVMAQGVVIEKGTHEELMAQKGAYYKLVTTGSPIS
- assay.comment: BSEP inhibitor investigation
- Assay type: in vitro ADME
- experimental.parameters: BSEP membrane capsules (membrane vesicles), ATP vs AMP, probe TCA; BSEP; substrate TCA 10 μM; inhibitor 3 μM; read-out: Inhibition rate
property.label: inhibition at 3 μM (%)
Reply with just the number (in %).

Ask: Lab note: need inhibition at 3 μM with BSEP (Homo sapiens) for entry COc1cc(N2CCC3(CCN(C)CC3)CC2)ccc1Nc1ncc(Cl)c(Nc2ccccc2P(C)(C)=O)n1 , please look it up.
Reply: -11.8

###

- Tested on: P-gp/BCRP/MRP2
- assay.comment: ABC efflux transporter substrate investigation on Caco-2 cells
- experimental.parameters: human, Caco-2
property.label: efflux ratio at 5 µM
The response must contain the number and no unit.

Ask: Can you look up efflux ratio at 5 µM on P-gp/BCRP/MRP2 for COc1cc(N2CCC3(CCN(C)CC3)CC2)ccc1Nc1ncc(Cl)c(Nc2ccccc2P(C)(C)=O)n1 ?
Reply: 84.2

###

- System: OAT3
- assay.comment: Uptake inhibitor investigation in HEK293 cells expressing transporter
- Assay type: in vitro ADME
- experimental.parameters: human, HEK293 cells expressing OAT3, probe ATV, 1 μM; read-out: Inhibition rate
property.label: inhibition at 5 μM (%)
Give the value in % but do not write % after it.

Ask: Fill blank: measured inhibition at 5 μM of the compound COc1cc(N2CCC3(CCN(C)CC3)CC2)ccc1Nc1ncc(Cl)c(Nc2ccccc2P(C)(C)=O)n1 [Iruplinalkib] is ____.
Reply: 22.5

###

- Test system: Ba/F3 (SLC34A2-ROS1) cells
- assay.comment: Cell proliferation (CellTiter-Glo)
- Assay type: cell-based
- experimental.parameters: Mus musculus, BaF3
property.label: IC50 (nM)
Report as a plain number; the unit nM is understood.

Ask: Tell me the measured IC50 of COc1cc(N2CCC3(CCN(C)CC3)CC2)ccc1Nc1ncc(Cl)c(Nc2ccccc2P(C)(C)=O)n1 , please.
Reply: 4.05

###

- subject.of.test: MRP2 (Homo sapiens, UniProt Q92887)
- Construct: host or cells: membrane vesicles ('Membrane capsule'), MRP2 versus NC control, with ATP or AMP
- Sequence (Q92887 whole entry): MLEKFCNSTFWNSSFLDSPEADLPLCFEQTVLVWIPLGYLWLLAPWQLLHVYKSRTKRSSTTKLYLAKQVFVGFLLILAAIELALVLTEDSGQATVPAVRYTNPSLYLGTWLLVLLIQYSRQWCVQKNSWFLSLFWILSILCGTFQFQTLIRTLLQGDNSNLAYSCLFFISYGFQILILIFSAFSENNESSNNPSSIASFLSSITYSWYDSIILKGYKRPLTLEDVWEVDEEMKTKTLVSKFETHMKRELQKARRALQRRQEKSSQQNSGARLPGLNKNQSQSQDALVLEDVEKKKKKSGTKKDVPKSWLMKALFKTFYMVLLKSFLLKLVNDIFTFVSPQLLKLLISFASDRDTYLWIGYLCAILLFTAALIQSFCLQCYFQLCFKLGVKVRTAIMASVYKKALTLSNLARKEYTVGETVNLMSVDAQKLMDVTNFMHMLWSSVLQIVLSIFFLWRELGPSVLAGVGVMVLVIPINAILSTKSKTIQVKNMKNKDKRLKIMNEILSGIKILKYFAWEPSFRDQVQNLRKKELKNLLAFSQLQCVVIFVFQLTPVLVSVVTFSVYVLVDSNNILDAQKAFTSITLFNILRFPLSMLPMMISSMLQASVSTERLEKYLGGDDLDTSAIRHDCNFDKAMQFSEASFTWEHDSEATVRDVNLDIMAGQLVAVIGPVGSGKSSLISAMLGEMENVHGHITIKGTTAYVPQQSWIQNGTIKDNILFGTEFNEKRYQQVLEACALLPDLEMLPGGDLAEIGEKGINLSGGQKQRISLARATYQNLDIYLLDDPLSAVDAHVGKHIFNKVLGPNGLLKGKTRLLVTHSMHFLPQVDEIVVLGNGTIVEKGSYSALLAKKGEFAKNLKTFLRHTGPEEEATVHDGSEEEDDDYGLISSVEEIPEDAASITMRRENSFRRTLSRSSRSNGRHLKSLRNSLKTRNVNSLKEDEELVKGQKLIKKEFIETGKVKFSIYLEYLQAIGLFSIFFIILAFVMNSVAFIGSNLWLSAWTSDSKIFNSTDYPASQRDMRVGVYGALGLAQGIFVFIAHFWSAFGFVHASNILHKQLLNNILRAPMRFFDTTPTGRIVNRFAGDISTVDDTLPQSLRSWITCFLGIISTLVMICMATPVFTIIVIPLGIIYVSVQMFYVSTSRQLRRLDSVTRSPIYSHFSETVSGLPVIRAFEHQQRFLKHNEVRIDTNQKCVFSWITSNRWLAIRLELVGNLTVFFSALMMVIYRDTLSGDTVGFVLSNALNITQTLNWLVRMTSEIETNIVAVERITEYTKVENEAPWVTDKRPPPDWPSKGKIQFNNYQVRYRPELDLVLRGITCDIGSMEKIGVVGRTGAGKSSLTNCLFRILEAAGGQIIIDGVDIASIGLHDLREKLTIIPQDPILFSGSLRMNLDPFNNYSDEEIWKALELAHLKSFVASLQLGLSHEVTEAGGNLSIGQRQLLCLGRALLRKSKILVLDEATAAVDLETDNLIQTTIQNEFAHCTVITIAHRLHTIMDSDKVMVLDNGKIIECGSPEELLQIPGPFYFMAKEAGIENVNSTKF
- assay.comment: MRP2 inhibitor investigation
- Assay type: in vitro ADME
- experimental.parameters: probe CDCF 5 μM; MRP2; substrate CDCF 5 μM; inhibitor 1 μM; read-out: Inhibition rate
property.label: inhibition at 1 μM (%)
# output: bare number, implied unit %

Ask: Any idea what inhibition at 1 μM came out for COc1cc(N2CCC3(CCN(C)CC3)CC2)ccc1Nc1ncc(Cl)c(Nc2ccccc2P(C)(C)=O)n1 [Iruplinalkib] on MRP2 (Homo sapiens, UniProt Q92887)?
Reply: -4.5

Values from paper PMC10140010
